- protocol-text: yeast display, Sf9 membrane polyspecificity reagent, FACS + sequencing; frameworks hold sequencing errors
measured-endpoint: polyreactivity (PSR sort gate)

The cases that follow already have their polyreactivity (PSR sort gate) on record.
| monomer-sequence | polyreactivity (PSR sort gate) |
| --- | --- |
| QVQLVESGGVFVQAGGTLRLSCAASGITLNGYVMGWYRQAPGKEREFVAVITTRGGSTYYADSVKGRFTISRDNAKNTVYLQMNSLNPEDTAVYYCAARYVREYNYWGQGTQVTVSS | high polyreactivity |
| QVQLVESGRGLVQAGGSLRLSCAASGRIFYYNDMGWYRQAPGNERELFAAITWTDDGTYYADSVKGRFTISRDNAKNTVYLQMNSLKPVDTAVYYCAKDYNRTVEDWAKVNGFDFWGQVTQVTVSS | low polyreactivity |
| QVQLVESGGGLVHAGGSLRLSCAASGRTFRWYALGWYRQAPGKERELVAAISSSGTRTYYADSVKGRFTISRDNAKNTVYLQMNSLKPEDTAVYYCAATWRVGYDYWGQGTQVTVSS | high polyreactivity |
| QVQLVESGGGLVQAGGSLRLSCAASGSIFGYNAMVWYRQAPGKESELVAAIRYSGGRTYYADSVKGRFTISRDNAKNSVYLQMNSLKPEDTAVYYCAAPIKFYRYGYTRYDYWGQCTQVTVSS | high polyreactivity |

--- query ---
QUERY: Give the measured polyreactivity (PSR sort gate) of QVQLVDSGGGSVQAGGSLRLSCAASGRTFPYYAMGWYRQAPGKERELVAAITIGNTNYADSVKGRFTISRDNAKNTVYLQMNSLKPEDTAVYYCNASHVSHYRARDYWGQGTQVTVSS .
RESULT: low polyreactivity
